Assay: NCI Yeast Anticancer Drug Screen. Data for the sgs1 mgt1 strain (AID 161);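 note: 0% = growth of cultures given vehicle only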
Conditions: S. cerevisiae sgs1 mgt1 strain, at 50.0 µM, active compounds read high
Compounds without any hit were thinned out: in the full panel of roughly 79,000, 15% have a hit.
Endpoint: growth inhibition (%)
All answers are understood in %, so give the number only.

Task item: Which value of growth inhibition has been reported for OC(Cc1ccccc1)CN1CCN(c2ccccc2)CC1 (configuration not stated) in the records?
Reply: 8

Task item: Name the reported growth inhibition value associated with the compound OCC12OCC(O1)C(O)C(O)C2O (configuration not stated)
Reply: 1.35

Task item: Recorded growth inhibition for CCC(=O)Oc1ccccc1OC(=O)CC , please?
Reply: 21

Task item: # query: growth inhibition of entry CCCCSc1ncnc2nc(C)[nH]c12
Reply: -7.7

Task item: Data request, read-out growth inhibition, for O=C(ON=C1c2ccccc2C(Br)C(Br)c2ccccc21)c1cc([N+](=O)[O-])cc([N+](=O)[O-])c1 (configuration not stated)
Reply: 28.8

---
Task item: Would you kindly share the measured growth inhibition for c1ccc(-c2ccc(-c3ccccc3)c(-c3ccc4c(c3)CCC4)c2-c2ccccc2)cc1 ?
Reply: 7.25

Task item: Name the recorded growth inhibition for CNC1=C(Sc2ccc(C)cc2)C(=O)c2ccccc2C1=O .
Reply: 5.4

Task item: Form field: reported growth inhibition of CCOC(=O)CN/N=C(\N)CSS(=O)(=O)O
Reply: -2.05

Task item: Returns the measured growth inhibition for the input compound. Input: CCc1ccc2c(OC(C)=O)c3ccccc3c(OC(C)=O)c2c1
Reply: 33.4

Task item: Which growth inhibition reading was recorded for the compound O=C(/C=C/c1ccc(O)cc1)c1ccc(Cl)cc1 ?
Reply: -18.6

Task item: Record request: growth inhibition value, item Nc1c(S(N)(=O)=O)cc(S(N)(=O)=O)cc1S(N)(=O)=O
Reply: -36

Task item: Endpoint output: growth inhibition of O=C(Nc1cccc(Cl)c1)OCc1ccccn1 . Value?
Reply: 6.9

----------
Experiment: NCI Yeast Anticancer Drug Screen. Data for the cln2 rad14 strain (AID 165);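 note: 0% = growth equal to vehicle treated cultures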
Details: S. cerevisiae cln2 rad14 strain, at 50.0 µM, active compounds read high
Experimental: Growth inhibition of yeast strains with defined genetic alterations is measured as a screen for potential anti-cancer activity. Selected strains with alterations in DNA damage repair or cell cycle control were exposed to compounds and growth inhibition was measured relative to vehicle treated controls. The strain used in this assay is cln2 rad14
The panel holds about 79,000 compounds, 15% with a hit somewhere; the sample as a whole holds those more often.
Some compounds, each annotated with its measured growth inhibition.
Please state the figure in %; there is no need to write the unit.

Here are 3 compounds together with their reported answers.
Task item: For CC(=O)COc1cccc2ccccc12 , what is its reported growth inhibition?
Reply: -36.4

Task item: Look up growth inhibition for this compound: OCC1C=Cc2ccccc21 (centres undefined)
Reply: 2.15

Task item: growth inhibition lookup needed for O=C(O)CN1CCCCC1 , thanks.
Reply: -27.1

New cases:
Task item: Fill blank: measured growth inhibition of the compound C=CC1=C(C)C2=NC1=CC1=NC(=CC3=C(C)C4=C(O)CC(=C5NC(=C2)C(C)C5CCC(=O)OC)C4=N3)C(CC)=C1C (centres undefined) is ____.
Reply: 3.65

Task item: Please give the measured growth inhibition for this compound: O=C1c2ccccc2C(=O)N1/N=N/N1C(=O)c2ccccc2C1=O
Reply: 96.1

Task item: Item under review: CCCCCC(Nc1nncs1)Nc1nncs1 . Reported growth inhibition?
Reply: 6.1

Task item: Bench note: what growth inhibition did O=COCCOC=O show?
Reply: 20.6

Task item: For the compound C#CCN(Cc1ccc2nc(-c3ccccc3)c(N)nc2c1)c1cc(OC)c(OC)c(OC)c1 , what growth inhibition is on record?
Reply: 16.1

Task item: For the compound CCCCCCC1(C)CCC(=O)O1 (centres undefined) , what growth inhibition is on record?
Reply: -6.25

Task item: Any idea what its growth inhibition is? The compound is O=[N+]([O-])c1ccc(NC(CO)C(O)C(O)C(O)CO)c([N+](=O)[O-])c1 (centres undefined)
Reply: -6.45

Task item: Sample O=C1CS[C@@H]2C(=O)CCCC2C1 (some centres undefined) — what was its growth inhibition?
Reply: -7.25

Task item: Given the entry CC12CCC(C(=O)n3c1nc1ccccc13)C(C)(C)O2 (centres undefined) , report its measured growth inhibition.
Reply: 4

Task item: Look at this compound and give its reported growth inhibition. Cc1nc(C(Cl)(Cl)Cl)nc(C(Cl)(Cl)Cl)n1
Reply: 9

Task item: Value lookup for growth inhibition; key = Cc1ccc(C2=CC(=O)/C(=C\C(=O)c3ccc(Br)cc3)O2)c(C)c1
Reply: 34.8

Task item: Which growth inhibition is reported for this compound? O=C(CCCCC(=O)NC1c2ccccc2Oc2ccccc21)NC1c2ccccc2Oc2ccccc21
Reply: 32

Task item: Quick one: growth inhibition for CC1=C[P+](c2ccccc2)(c2ccccc2)c2ccccc2O1 ?
Reply: 34.6

----------
In this section we review reported growth inhibition values for a set of compounds.
Experiment: NCI Yeast Anticancer Drug Screen. Data for the rad50 strain (AID 155);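 note: 0% = growth of vehicle-only cultures of the same strain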
Conditions: S. cerevisiae rad50 strain growth inhibition; at 50.0 µM; active compounds read high
Compounds without any hit were thinned out: in the full panel of roughly 79,000, 15% have a hit.
Field: numeric (%). Do not append units.

Task item: Recorded growth inhibition for O=c1[nH]c2cccnc2[nH]c1=O , please?
Reply: -8

Task item: Field request: growth inhibition | item: CCCCCCCCCCCC(=O)N(CCCCCCCCCCC(=O)O)CC(O)C(O)C(OC1OC(CO)C(O)C(O)C1O)C(O)CO (configuration not stated)
Reply: 65.3

Task item: Bench note: what growth inhibition did COc1cc2c(cc1OC)C(=O)C1(C2)[C@H](c2ccccc2)C2C(=O)c3cc(OC)c(OC)cc3C2[C@H]1c1ccccc1 (some centres not stated) show?
Reply: -2.5

Task item: Quick one: growth inhibition of CC1(C)CCC(C2=CC(=O)c3c(O)ccc(O)c3C2=O)O1 (configuration not stated) ?
Reply: -8.25

Task item: // growth inhibition lookup, key: Oc1ccc(-c2csc(NNC3=NC/C(=C/c4ccc5c(c4)OCO5)S3)n2)cc1O
Reply: 30.9

Task item: Given CCOC(=O)/C(C#N)=C/c1ccc(Br)cc1 , state its recorded growth inhibition.
Reply: 15.7

// next item, growth inhibition requested
Task item: Fill blank: measured growth inhibition of the compound c1ccc2c(c1)oc1ccc3nsnc3c12 is ____.
Reply: 7.25

----------
Assay: NCI Yeast Anticancer Drug Screen. Data for the mec2-1 strain (AID 157)
Details: S. cerevisiae mec2-1 strain, at 50.0 µM, active compounds read high
About 79,000 compounds went through this panel and 15% of them were active in at least one assay; those are over-represented in the sample as a whole.
Endpoint: growth inhibition (%)
Provide the reading as a plain figure in %.

Task item: Field request: growth inhibition | item: COCC1(c2ccccc2)C(=O)N(C)C(=O)N1C (centres undefined)
Reply: 2.5

Task item: Need growth inhibition of Cn1c(=O)c2snnc2n(C)c1=O , thanks.
Reply: -2.65

Task item: Quick one: growth inhibition for CCOC(=O)c1cnc2ccccc2c1N=[N+]=[N-] ?
Reply: 27.8

Task item: Which growth inhibition value is on record for CCCNS(C)(=O)=O ?
Reply: 1.2

Task item: What measured growth inhibition goes with CCOc1ncnc2ccc(Cl)cc12 ?
Reply: -3.7

Next:
Task item: Look up growth inhibition for this molecule: C=C(C)c1ccc(F)cc1
Reply: -7.5

Task item: Given the molecule c1cc2c3c(c1)ccc1cccc(c13)C2 , what is its reported growth inhibition?
Reply: -26.2

Task item: Find the recorded growth inhibition belonging to CC(=O)O[C@H]1CCN2C(=O)C=CC(OCc3ccccc3)C12 (some centres undefined) and report it.
Reply: -15.3

Task item: Which value of growth inhibition has been reported for CCCCCCCCC(C)c1cccc(C(C)CCCCCCCC)c1O (centres undefined) in the records?
Reply: 14.6

Task item: Sample CCOC(=O)C(C)(C)Oc1ccc2c(C)c(-c3ccc(Cl)cc3)c(=O)oc2c1 — what was its growth inhibition?
Reply: -26.4

Task item: Which growth inhibition value is on record for CCOC(=O)N1CCN(P(=O)(Nc2ccc3nc(NC(=O)OC)[nH]c3c2)Oc2ccccc2)CC1 (centres undefined) ?
Reply: -6.9

Task item: If you can, please state the reported growth inhibition value of C/C(N)=N/OCc1ccccc1 .
Reply: 6.95

Task item: Quick one: growth inhibition for O=C1CCC(=O)Nc2ccc3nc4ccccc4c(c3c2)SCCCCCCCCCCCCSc2c3ccccc3nc3ccc(cc23)N1 ?
Reply: -15.2

Task item: What measured growth inhibition goes with O=C(O)Cc1ccc2ccccc2c1Br ?
Reply: 13.1

Task item: Quick check: growth inhibition of NC(=O)c1cc[cH-]c1.[Fe+2].c1cc[cH-]c1 ?
Reply: 9

----------
Test: NCI Yeast Anticancer Drug Screen. Data for the cln2 rad14 strain (AID 165);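 note: 0% = growth equal to vehicle treated cultures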
Details: S. cerevisiae cln2 rad14 strain, at 50.0 µM, active compounds read high
The panel holds about 79,000 compounds, 15% with a hit somewhere; the sample as a whole holds those more often.
Below, each entry is listed alongside its reported growth inhibition.
Express the result in % but write the number alone.

Reference set, count: 2
Task item: Reported growth inhibition for COc1ccc2c(c1)-c1cc(OC)ccc1C2c1ccccc1 : what is it?
Reply: -57.5

Task item: Could you tell me which growth inhibition is on file for CCCCOC(=O)NC(=O)c1cn(CCCOC(=O)CCCCCCCCC(=O)OCCCn2cc(C(=O)NC(=O)OCCCC)c(=O)[nH]c2=O)c(=O)[nH]c1=O ?
Reply: 5.05

Next:
Task item: Reported growth inhibition, compound CCOC(=O)NC1OC(C(N)=O)C(O)C(O)C1O (configuration not stated) : ____
Reply: -33.3

Task item: Endpoint output: growth inhibition of c1ccc(NP2(Nc3ccccc3)=NP(Nc3ccccc3)(Nc3ccccc3)=NP(Nc3ccccc3)(Nc3ccccc3)=N2)cc1 . Value?
Reply: 15.2

Task item: Which growth inhibition value belongs to CC(=O)Nc1ccc(S(=O)(=O)CCN2C(=O)c3ccccc3C2=O)cc1 ?
Reply: -62.5

Task item: For the compound NC(=O)C(F)(F)C(F)(F)C(N)=O , what growth inhibition is on record?
Reply: -51.6

Task item: Look up growth inhibition: COC(=O)c1ccc(-n2c(C)nc(=O)c(-c3ccccc3)c2C)cc1
Reply: 11.9

Task item: Look at this compound and give its reported growth inhibition. CCOC(=O)CC[C@@H](NC(=O)c1ccc(NCc2ccc3nc(OC)c(OC)nc3c2)cc1)C(=O)OCC
Reply: -9.55

Task item: Fill in: growth inhibition of Cc1ccc(/C=C/C(=O)C(C)(C)CN2CCCCC2)cc1 is ___
Reply: 14.3

Task item: Any idea what growth inhibition was measured for CCCC12C=C(OC)C(=O)C=C1OC(c1cc(OC)c(OC)c(OC)c1)C2C (configuration not stated) ?
Reply: -4.45

Task item: # growth inhibition lookup, item COc1ccc(CC2c3cc(OC)c(OC)cc3C=CN2C)cc1OC (configuration not stated)
Reply: 14.9

Task item: Please look up its growth inhibition: O=c1cc(CNC2CC3CCC2C3)[nH]c(=O)[nH]1 (configuration not stated)
Reply: -3.45

Task item: Entry Cc1ccc(S(=O)(=O)NCNS(=O)(=O)c2ccc(C)cc2)cc1 has what growth inhibition?
Reply: 14

Task item: For the compound CCC(=O)Nc1nc2c(ncn2C2OC(COC(=O)CC)C(OC(=O)CC)C2OC(=O)CC)c(=O)[nH]1 (configuration not stated) , what growth inhibition is on record?
Reply: 6.25

Task item: Which growth inhibition is listed for CC1CCCC/C1=N\N(C)C (configuration not stated) ?
Reply: -29.6

Task item: Give its growth inhibition value. Item: O=C(CCC(=O)OCC1CCCO1)OCC1CCCO1 (configuration not stated)
Reply: 4.9

Task item: Quick one: growth inhibition for COc1ccc(C(C#N)N2CCCN(C(C#N)c3ccc(OC)cc3)C2c2ccccc2)cc1 (configuration not stated) ?
Reply: -0.2

Task item: Look up growth inhibition: CCS(=O)(=O)CCNC(=O)NS(=O)(=O)c1ccc(C)cc1
Reply: -1.2
